interaction score listing for selected binders.
- study_system: T1, 4H3606-bN
- T1 chain: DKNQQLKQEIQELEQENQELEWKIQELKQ
- assay_text: two-hybrid library CCNG1;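 note: natural log of median RNA to DNA barcode read ratio; higher means stronger binding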
Just the number, please, no unit attached.

Prompt: Looking for the measured interaction score of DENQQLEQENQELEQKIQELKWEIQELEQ [4H1193-bN] , can you help?
Completion: -0.563

Prompt: Which value of interaction score has been reported for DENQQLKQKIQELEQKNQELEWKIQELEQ [4H1845-bN] in the records?
Completion: -0.857

Prompt: // returns reported interaction score for input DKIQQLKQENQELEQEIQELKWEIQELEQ [4H2697-bN]
Completion: -0.924

Prompt: I would be grateful if you could share the reported interaction score for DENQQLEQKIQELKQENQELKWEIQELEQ [4H1369-bN] .
Completion: 0.215
